# System Under Test: Human CD3eg linker (human)
# Sequence (chain, as listed by the source limits assumed): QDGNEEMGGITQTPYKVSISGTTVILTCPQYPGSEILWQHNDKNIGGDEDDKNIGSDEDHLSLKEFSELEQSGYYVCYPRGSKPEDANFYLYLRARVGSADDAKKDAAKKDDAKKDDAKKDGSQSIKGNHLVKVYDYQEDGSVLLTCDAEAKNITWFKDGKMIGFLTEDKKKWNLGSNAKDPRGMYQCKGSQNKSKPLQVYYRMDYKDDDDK
# Assay Protocol: SPR; fold vs parent H183/L072
Listed below: fold change of affinity values for each entry.
Express your answer in fold, writing the number without its unit.

* H183/L072 VL N28V (antibody, name in Kabat numbering, V domains shown) VH: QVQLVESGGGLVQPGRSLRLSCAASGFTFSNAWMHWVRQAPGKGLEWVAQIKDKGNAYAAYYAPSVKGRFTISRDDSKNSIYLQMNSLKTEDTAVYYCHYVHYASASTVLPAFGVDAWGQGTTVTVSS VL: DIVMTQSPLSLPVTPGEPASISCQASQELVHMVRNTYLHWYQQKPGQAPRLLIYKVSNRFPGVPDRFSGSGSGTDFTLKISRVEAEDVGVYYCAQGTSVPFTFGQGTKLEIK | 0
* H183/L072 VL K50N (antibody, name in Kabat numbering, V domains shown) VH: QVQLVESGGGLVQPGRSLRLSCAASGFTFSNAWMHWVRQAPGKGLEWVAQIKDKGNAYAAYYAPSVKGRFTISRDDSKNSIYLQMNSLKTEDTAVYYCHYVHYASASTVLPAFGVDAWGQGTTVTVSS VL: DIVMTQSPLSLPVTPGEPASISCQASQELVHMNRNTYLHWYQQKPGQAPRLLIYNVSNRFPGVPDRFSGSGSGTDFTLKISRVEAEDVGVYYCAQGTSVPFTFGQGTKLEIK | 0

Please examine the following record next.
Which fold change of affinity value is on record for H183/L072 VL A25L (antibody, name in Kabat numbering, V domains shown) VH: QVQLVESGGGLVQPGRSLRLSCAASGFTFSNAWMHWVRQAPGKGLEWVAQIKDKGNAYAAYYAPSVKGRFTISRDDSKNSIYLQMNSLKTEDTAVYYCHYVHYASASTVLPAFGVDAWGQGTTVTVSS VL: DIVMTQSPLSLPVTPGEPASISCQLSQELVHMNRNTYLHWYQQKPGQAPRLLIYKVSNRFPGVPDRFSGSGSGTDFTLKISRVEAEDVGVYYCAQGTSVPFTFGQGTKLEIK ?
0
